Ref: ChEMBL document CHEMBL1667818

Target: Transient receptor potential cation channel subfamily V member 1 (Homo sapiens, UniProt Q8NER1)
Sequence (Q8NER1 whole entry): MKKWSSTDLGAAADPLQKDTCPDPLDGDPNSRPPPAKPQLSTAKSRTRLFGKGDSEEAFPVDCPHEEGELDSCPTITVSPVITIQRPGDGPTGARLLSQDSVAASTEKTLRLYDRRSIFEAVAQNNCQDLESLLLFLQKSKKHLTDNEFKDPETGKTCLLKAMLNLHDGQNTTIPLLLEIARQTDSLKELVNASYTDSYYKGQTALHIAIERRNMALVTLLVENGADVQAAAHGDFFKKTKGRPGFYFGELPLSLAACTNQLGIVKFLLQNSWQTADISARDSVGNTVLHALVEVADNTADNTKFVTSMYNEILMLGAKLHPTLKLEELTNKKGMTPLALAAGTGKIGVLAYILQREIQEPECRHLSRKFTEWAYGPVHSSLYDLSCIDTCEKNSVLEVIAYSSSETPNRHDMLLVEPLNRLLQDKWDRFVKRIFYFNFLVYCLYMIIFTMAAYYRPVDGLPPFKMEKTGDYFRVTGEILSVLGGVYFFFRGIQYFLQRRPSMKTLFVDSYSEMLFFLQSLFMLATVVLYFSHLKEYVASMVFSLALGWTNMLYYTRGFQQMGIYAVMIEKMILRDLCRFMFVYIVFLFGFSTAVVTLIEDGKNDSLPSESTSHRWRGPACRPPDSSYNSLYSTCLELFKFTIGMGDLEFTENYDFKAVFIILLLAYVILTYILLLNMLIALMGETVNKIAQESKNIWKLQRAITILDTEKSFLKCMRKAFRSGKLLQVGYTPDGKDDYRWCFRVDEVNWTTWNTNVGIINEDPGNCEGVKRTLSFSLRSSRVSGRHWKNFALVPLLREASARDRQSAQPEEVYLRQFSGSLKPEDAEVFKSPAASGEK
Test: Antagonist activity at human TRPV1 expressed in CHO cells assessed as inhibition of capsaicin-induced calcium influx by fluorimetric assay
Assay type: functional, cell-based
Details: read-out: IC50
readout name: IC50 (nM)

>  <molecule>
O=C(N[C@@H]1CC[C@H](O)C1)c1noc(-c2ccc(C(F)(F)F)cc2)c1Cl

>  <IC50 / nM>
23

$$$$
>  <molecule>
O=C(N[C@H]1CCC[C@@H](O)C1)c1noc(-c2ccc(C(F)(F)F)cc2)c1Cl

>  <IC50 / nM>
112

$$$$

A. O=C(N[C@@H]1CCC[C@H](O)C1)c1noc(-c2ccc(C(F)(F)F)cc2)c1Cl
B. O=C(NC1CCCC1)c1noc(-c2ccc(C(F)(F)F)cc2)c1F
Consider A and B . Which of these has its IC50 at a higher number? Lab log: write the label of the selected item as the result. B
